target: Tissue-type plasminogen activator (Homo sapiens)
Sequence (P00750 whole entry): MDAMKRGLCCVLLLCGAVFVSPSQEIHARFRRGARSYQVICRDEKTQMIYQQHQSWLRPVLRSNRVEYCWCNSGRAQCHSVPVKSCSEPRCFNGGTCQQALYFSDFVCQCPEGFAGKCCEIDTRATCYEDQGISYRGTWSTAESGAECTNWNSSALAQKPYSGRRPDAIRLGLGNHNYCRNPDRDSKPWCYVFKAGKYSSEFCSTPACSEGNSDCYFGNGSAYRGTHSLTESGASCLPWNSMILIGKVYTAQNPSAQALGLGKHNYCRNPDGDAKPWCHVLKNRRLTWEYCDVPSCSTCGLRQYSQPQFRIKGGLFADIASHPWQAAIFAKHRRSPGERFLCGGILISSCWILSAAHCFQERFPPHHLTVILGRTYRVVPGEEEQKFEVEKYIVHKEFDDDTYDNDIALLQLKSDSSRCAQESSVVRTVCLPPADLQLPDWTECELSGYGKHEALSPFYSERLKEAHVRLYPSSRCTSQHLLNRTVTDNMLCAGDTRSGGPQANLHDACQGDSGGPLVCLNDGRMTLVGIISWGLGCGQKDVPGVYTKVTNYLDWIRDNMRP
recorded.metric: IC50

// IC50 value for N=C(N)c1ccc(C(=O)Nc2ccccc2C(=O)Nc2ccc(Cl)cn2)cc1 : > 10 µM

* * *

protocol: Oral bioavailability in Beagle dog at 0.5 mg/kg
Type: ADME, organism-based, Canis lupus familiaris
assay.setup: in vivo
For each entry below, report its bioavailability value.
Express the reported value numerically, then name its unit.

test.smiles: CN1CCN=C1c1ccc(C(=O)Nc2ccccc2C(=O)Nc2ccc(Cl)cn2)cc1
bioavailability: 50%

Note: attention shifts to another entry.
// bioavailability value for CN(C)C(=N)c1ccc(C(=O)Nc2ccccc2C(=O)Nc2ccc(Cl)cn2)cc1 : 69%
